Target: human GlyT1c transporter (Homo sapiens (Human), UniProt P48067)
Sequence (P48067 whole entry): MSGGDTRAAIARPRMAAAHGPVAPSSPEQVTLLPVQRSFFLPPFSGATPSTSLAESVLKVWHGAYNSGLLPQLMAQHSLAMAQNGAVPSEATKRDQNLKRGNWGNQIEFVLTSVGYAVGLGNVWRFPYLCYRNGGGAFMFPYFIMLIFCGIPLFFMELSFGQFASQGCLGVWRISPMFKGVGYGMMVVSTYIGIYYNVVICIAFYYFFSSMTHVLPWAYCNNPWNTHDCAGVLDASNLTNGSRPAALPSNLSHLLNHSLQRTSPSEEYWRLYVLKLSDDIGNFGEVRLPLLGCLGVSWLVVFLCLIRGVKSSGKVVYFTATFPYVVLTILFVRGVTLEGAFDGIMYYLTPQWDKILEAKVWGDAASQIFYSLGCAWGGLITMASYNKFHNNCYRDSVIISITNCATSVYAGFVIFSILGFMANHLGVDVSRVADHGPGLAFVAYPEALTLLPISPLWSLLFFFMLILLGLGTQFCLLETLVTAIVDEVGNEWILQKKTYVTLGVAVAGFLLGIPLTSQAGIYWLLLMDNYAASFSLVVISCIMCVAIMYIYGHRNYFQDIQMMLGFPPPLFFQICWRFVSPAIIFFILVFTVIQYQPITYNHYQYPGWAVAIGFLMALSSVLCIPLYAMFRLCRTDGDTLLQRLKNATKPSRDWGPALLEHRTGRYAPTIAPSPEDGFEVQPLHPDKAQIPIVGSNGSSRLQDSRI
Test: Radioligand binding assay using recombinant CHO cell membranes expressing human GlyT1
Settings: radioligand [3H]-(R)-NPTS (examples 1-19, 22-52, 54-87), read-out: radioligand binding Kiapp
Structures can show the parent of a compound that is named as a salt.
In this section, each of the compounds is paired with its reported Ki.

compound | system under test | Ki
O=S(=O)(NCCOc1ccc2c(c1)C(C1(c3ccc(Cl)cc3)CCC1)NCC2)c1ccc2ccccc2c1 (centres unmarked) [Example 9, hydrochloride] | human GlyT1c transporter (Homo sapiens (Human), UniProt P48067) | ≤ 10000 nM
N#Cc1ccccc1S(=O)(=O)NCCOc1ccc2c(c1)C(C1(c3ccc(Cl)cc3)CCC1)NCC2 (centres unmarked) [Example 23, hydrochloride] | human GlyT1c transporter (Homo sapiens (Human), UniProt P48067) | ≤ 10000 nM
CCS(=O)(=O)NCCOc1ccc2c(c1)C(C1(c3ccc(Cl)cc3)CCC1)NCC2 (centres unmarked) [Example 7, hydrochloride] | human GlyT1c transporter (Homo sapiens (Human), UniProt P48067) | ≤ 100 nM
CS(=O)(=O)NCCOc1cc2c(cc1F)CCNC2C1(c2ccc(Cl)cc2)CCC1 (centres unmarked) [Example 12, hydrochloride] | human GlyT1c transporter (Homo sapiens (Human), UniProt P48067) | ≤ 1000 nM
CC(C)CS(=O)(=O)NCCOc1ccc2c(c1)C(C1(c3ccc(Cl)cc3)CCC1)NCC2 (centres unmarked) [Example 8, hydrochloride] | human GlyT1c transporter (Homo sapiens (Human), UniProt P48067) | ≤ 100 nM
O=S(=O)(NCCOc1ccc2c(c1)C(C1(c3ccc(Cl)cc3)CCC1)NCC2)c1cccnc1 (centres unmarked) [Example 10, hydrochloride] | human GlyT1c transporter (Homo sapiens (Human), UniProt P48067) | ≤ 100 nM
O=S(=O)(NCCOc1ccc2c(c1)C(C1(c3ccc(Cl)cc3)CCC1)NCC2)c1ccc(Cl)cc1 (centres unmarked) [Example 27, hydrochloride] | human GlyT1c transporter (Homo sapiens (Human), UniProt P48067) | ≤ 1000 nM
CCCS(=O)(=O)NCCOc1ccc2c(c1)C(C1(c3ccc(F)cc3)CCC1)N(C(=N)N)CC2 (centres unmarked) [Example 72, acetate] | human GlyT1c transporter (Homo sapiens (Human), UniProt P48067) | ≤ 10000 nM
O=S(=O)(NCCOc1ccc2c(c1)C(C1(c3ccc(Cl)cc3)CCC1)NCC2)C(F)(F)F (centres unmarked) | human GlyT1c transporter (Homo sapiens (Human), UniProt P48067) | ≤ 10000 nM
O=C(NCCOc1ccc2c(c1)C(C1(c3ccc(Cl)cc3)CCC1)NCC2)c1ccc(Cl)cc1Cl (centres unmarked) | human GlyT1c transporter (Homo sapiens (Human), UniProt P48067) | ≤ 10000 nM
CCCCS(=O)(=O)NCCOc1ccc2c(c1)C(C1(c3ccc(Cl)cc3)CCC1)NCC2 (centres unmarked) [Example 16, hydrochloride] | human GlyT1c transporter (Homo sapiens (Human), UniProt P48067) | ≤ 100 nM
N#Cc1ccc(S(=O)(=O)NCCOc2ccc3c(c2)C(C2(c4ccc(Cl)cc4)CCC2)NCC3)cc1 (centres unmarked) [Example 24, hydrochloride] | human GlyT1c transporter (Homo sapiens (Human), UniProt P48067) | ≤ 10000 nM
CCCS(=O)(=O)NCCOc1ccc2c(c1)C(C1(c3ccc(Cl)cc3)CCC1)NCC2 (centres unmarked) [Example 4, hydrochloride] | human GlyT1c transporter (Homo sapiens (Human), UniProt P48067) | ≤ 100 nM
O=S(=O)(NCCOc1ccc2c(c1)C(C1(c3ccc(Cl)cc3)CCC1)NCC2)c1ccccc1Cl (centres unmarked) [Example 25, hydrochloride] | human GlyT1c transporter (Homo sapiens (Human), UniProt P48067) | ≤ 1000 nM
O=S(=O)(NCCOc1ccc2c(c1)C(C1(c3ccc(Cl)cc3)CCC1)NCC2)c1ccc(-c2ccon2)s1 (centres unmarked) [Example 22, hydrochloride] | human GlyT1c transporter (Homo sapiens (Human), UniProt P48067) | ≤ 100000 nM
COc1ccccc1S(=O)(=O)NCCOc1ccc2c(c1)C(C1(c3ccc(Cl)cc3)CCC1)NCC2 (centres unmarked) [Example 18, hydrochloride] | human GlyT1c transporter (Homo sapiens (Human), UniProt P48067) | ≤ 10000 nM
CCCS(=O)(=O)NCCOc1cc2c(cc1F)CCNC2C1(c2ccc(Cl)cc2)CCC1 (centres unmarked) [Example 15, hydrochloride] | human GlyT1c transporter (Homo sapiens (Human), UniProt P48067) | ≤ 100 nM
COc1ccc(S(=O)(=O)NCCOc2ccc3c(c2)C(C2(c4ccc(Cl)cc4)CCC2)NCC3)cc1 (centres unmarked) [Example 31, hydrochloride] | human GlyT1c transporter (Homo sapiens (Human), UniProt P48067) | ≤ 1000 nM
O=S(=O)(NCCOc1cc2c(cc1F)CCNC2C1(c2ccc(Cl)cc2)CCC1)c1ccccc1 (centres unmarked) [Example 13, hydrochloride] | human GlyT1c transporter (Homo sapiens (Human), UniProt P48067) | ≤ 1000 nM
O=S(=O)(NCCOc1ccc2c(c1)C(C1(c3ccc(Cl)cc3)CCC1)NCC2)c1ccccc1 (centres unmarked) [Example 62, hydrochloride] | human GlyT1c transporter (Homo sapiens (Human), UniProt P48067) | ≤ 1000 nM
O=S(=O)(NCCOc1ccc2c(c1)C(C1(c3ccc(Cl)cc3)CCC1)NCC2)c1cccc2cccnc12 (centres unmarked) [Example 30, hydrochloride] | human GlyT1c transporter (Homo sapiens (Human), UniProt P48067) | ≤ 10000 nM
O=S(=O)(NCCOc1cc2c(cc1F)CCNC2C1(c2ccc(Cl)cc2)CCC1)c1cccnc1 (centres unmarked) [Example 14, hydrochloride] | human GlyT1c transporter (Homo sapiens (Human), UniProt P48067) | ≤ 100 nM
CCCS(=O)(=O)N1CCN(c2cc3c(cc2OC)C(C2(c4ccc(Cl)cc4)CCC2)N(S(=O)(=O)CCC)CC3)CC1 (centres unmarked) | human GlyT1c transporter (Homo sapiens (Human), UniProt P48067) | ≤ 10000 nM
